Target: Human recombinant PKCθ (Homo sapiens, UniProt Q04759)
Sequence (Q04759 whole entry): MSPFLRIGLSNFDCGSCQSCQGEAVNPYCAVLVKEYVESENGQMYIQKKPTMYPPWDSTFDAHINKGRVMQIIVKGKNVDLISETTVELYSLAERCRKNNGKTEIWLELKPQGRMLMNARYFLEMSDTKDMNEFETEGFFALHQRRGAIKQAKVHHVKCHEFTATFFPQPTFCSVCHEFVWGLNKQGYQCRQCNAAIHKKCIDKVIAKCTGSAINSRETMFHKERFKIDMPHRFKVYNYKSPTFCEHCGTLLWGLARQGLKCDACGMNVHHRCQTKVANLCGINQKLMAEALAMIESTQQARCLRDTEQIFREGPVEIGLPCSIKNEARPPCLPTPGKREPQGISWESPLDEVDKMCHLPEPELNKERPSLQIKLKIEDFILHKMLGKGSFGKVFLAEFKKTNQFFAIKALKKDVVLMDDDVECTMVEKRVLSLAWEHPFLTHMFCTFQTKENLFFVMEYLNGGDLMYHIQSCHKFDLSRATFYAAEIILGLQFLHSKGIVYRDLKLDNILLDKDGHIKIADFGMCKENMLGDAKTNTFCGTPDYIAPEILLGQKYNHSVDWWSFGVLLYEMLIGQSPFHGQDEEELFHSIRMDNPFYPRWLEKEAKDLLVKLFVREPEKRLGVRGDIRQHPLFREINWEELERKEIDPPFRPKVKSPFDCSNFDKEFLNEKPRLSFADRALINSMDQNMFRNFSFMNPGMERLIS
Test: Protein Kinase C θ assay
Observation Type: IC50 (nM)
Kindly provide the numeric value in nM only, without the unit symbol.

Observe how each entry below is paired with its result.
CN1CCN(c2ccc(Cl)c(C3=C(c4c[nH]c5ccccc45)C(=O)NC3=O)n2)CC1 [Example 10] = 5.8
CN1CCN(c2ccc(C(F)(F)F)c(C3=C(c4c[nH]c5ccccc45)C(=O)NC3=O)n2)CC1 [Example 1] = 5.4

With those in mind, consider the next compound.
Challenge: Could you tell me which IC50 is on file for Cc1cccc2c(C3=C(c4c(Cl)ccc5[nH]c(CN(C)C)cc45)C(=O)NC3=O)c[nH]c12 [Example 41] ?
Response given: 9.3

---

Biological target: Human recombinant PKCβ1 (Homo sapiens)
Construct: purchased Oxford Biomedical Research
Sequence (P05771 whole entry): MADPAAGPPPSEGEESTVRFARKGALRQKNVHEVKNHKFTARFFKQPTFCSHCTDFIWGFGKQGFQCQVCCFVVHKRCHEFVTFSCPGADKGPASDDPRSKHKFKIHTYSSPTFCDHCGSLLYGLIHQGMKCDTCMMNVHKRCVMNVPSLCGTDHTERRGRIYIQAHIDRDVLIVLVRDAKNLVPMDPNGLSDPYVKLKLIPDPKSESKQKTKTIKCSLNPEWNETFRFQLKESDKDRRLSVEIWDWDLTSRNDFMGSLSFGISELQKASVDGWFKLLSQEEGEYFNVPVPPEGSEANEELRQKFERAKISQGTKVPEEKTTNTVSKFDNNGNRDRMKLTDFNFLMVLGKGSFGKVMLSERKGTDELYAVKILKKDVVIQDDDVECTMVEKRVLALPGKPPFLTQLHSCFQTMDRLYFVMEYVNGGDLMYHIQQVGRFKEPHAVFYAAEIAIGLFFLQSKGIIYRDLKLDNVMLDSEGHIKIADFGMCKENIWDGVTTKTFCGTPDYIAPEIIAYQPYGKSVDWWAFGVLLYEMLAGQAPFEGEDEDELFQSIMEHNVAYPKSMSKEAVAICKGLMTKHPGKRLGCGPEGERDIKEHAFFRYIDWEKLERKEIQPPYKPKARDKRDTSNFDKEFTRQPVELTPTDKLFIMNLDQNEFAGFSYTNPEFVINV
Experiment: Protein Kinase Cβ1 assay
Assay type: biochemical
Quick reference for IC50 among some compounds
Kindly provide the numeric value in nM only, without the unit symbol.

Observe how each entry below is paired with its result.
CN1CCN(c2ccc(C(F)(F)F)c(C3=C(c4c[nH]c5ccccc45)C(=O)NC3=O)n2)CC1 = 5.9
Cc1cccc2c(C3=C(c4c(Cl)ccc5[nH]c(CN(C)C)cc45)C(=O)NC3=O)c[nH]c12 = 14.9

Challenge: Reported IC50 for Human recombinant PKCβ1 (Homo sapiens), given CN(C)Cc1cc2c(C3=C(c4cn(C)c5ccccc45)C(=O)NC3=O)cccc2[nH]1 ?
Response given: 13.2

---

Tested on: spleen cells from CBA and BALB/c mice
Experiment: Allogeneic mixed lymphocyte reaction (MLR)
Type: cell-based
Conditions: Mus musculus, two-way MLR, 3H-thymidine incorporation
Quick reference for pIC50 among some molecules
# pIC50: negative log10 of molar concentration; output just the value

Observe how each entry below is paired with its result.
CN1CCN(c2ccc(C(F)(F)F)c(C3=C(c4c[nH]c5ccccc45)C(=O)NC3=O)n2)CC1 [Example 1] = 7.54
Cc1cccc2c(C3=C(c4c(Cl)ccc5[nH]c(CN(C)C)cc45)C(=O)NC3=O)c[nH]c12 [Example 41] = 7.49

With those in mind, consider the next molecule.
Challenge: Could you tell me which pIC50 is on file for CN(C)Cc1cc2c(C3=C(c4cn(C)c5ccccc45)C(=O)NC3=O)cccc2[nH]1 [Example 39] ?
Response given: 6.55

---

Quick reference for pIC50 among some molecules
Molecular target: Human recombinant PKCδ (Homo sapiens)
Sequence (Q05655 whole entry): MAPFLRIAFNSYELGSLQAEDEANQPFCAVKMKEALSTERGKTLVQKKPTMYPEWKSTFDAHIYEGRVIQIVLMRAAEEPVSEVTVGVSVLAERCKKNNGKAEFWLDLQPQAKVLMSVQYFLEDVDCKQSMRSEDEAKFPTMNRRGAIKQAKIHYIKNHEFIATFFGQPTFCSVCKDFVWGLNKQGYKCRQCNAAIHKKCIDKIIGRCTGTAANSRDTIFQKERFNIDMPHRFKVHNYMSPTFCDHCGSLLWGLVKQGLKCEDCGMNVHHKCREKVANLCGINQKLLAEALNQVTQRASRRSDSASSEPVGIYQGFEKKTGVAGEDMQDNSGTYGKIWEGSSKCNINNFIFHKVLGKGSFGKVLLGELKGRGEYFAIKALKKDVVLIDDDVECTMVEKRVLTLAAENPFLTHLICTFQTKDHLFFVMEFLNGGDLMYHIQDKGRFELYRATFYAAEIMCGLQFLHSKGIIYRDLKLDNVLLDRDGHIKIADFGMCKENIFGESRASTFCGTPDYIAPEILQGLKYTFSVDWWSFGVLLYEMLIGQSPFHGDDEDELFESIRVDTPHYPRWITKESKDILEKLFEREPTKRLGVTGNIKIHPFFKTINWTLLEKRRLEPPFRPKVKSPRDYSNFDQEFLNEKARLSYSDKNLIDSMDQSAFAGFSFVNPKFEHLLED
Test: Protein Kinase Cδ assay
# pIC50: negative log10 of molar concentration; output just the value

CN1CCN(c2ccc(C(F)(F)F)c(C3=C(c4c[nH]c5ccccc45)C(=O)NC3=O)n2)CC1 = 7.68

Challenge: Could you tell me which pIC50 is on file for Cc1cccc2c(C3=C(c4c(Cl)ccc5[nH]c(CN(C)C)cc45)C(=O)NC3=O)c[nH]c12 ?
Response given: 7.53

---

Target: Human recombinant PKCε (Homo sapiens)
Sequence (Q02156 whole entry): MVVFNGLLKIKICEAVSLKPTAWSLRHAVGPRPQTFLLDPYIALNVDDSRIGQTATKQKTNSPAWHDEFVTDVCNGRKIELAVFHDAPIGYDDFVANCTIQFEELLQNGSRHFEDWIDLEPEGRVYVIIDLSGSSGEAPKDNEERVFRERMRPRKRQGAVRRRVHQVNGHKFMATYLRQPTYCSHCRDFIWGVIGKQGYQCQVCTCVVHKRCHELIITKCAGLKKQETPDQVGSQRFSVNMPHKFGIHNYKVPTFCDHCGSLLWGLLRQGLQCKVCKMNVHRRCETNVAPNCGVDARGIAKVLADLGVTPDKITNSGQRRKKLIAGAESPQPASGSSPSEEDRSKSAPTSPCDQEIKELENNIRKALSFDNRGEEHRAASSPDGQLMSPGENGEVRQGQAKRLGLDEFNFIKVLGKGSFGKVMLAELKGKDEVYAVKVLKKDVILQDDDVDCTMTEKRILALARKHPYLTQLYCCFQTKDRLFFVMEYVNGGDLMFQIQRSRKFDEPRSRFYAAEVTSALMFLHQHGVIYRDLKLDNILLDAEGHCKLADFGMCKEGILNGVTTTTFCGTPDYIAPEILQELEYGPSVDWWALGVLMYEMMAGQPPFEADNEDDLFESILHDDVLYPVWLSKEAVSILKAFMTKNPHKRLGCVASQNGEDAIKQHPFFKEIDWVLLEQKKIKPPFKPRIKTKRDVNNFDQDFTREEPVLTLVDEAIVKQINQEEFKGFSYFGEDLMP
Test: Protein Kinase Cε assay
Settings: read-out: IC50 in Protein Kinase Cε assay (sentence prints PKCδ)
Observation Type: pIC50
# pIC50: negative log10 of molar concentration; output just the value

Cc1cccc2c(C3=C(c4c(Cl)ccc5[nH]c(CN(C)C)cc45)C(=O)NC3=O)c[nH]c12 = 8.12

With those in mind, consider the next compound.
Challenge: Could you tell me which pIC50 is on file for CN1CCN(c2ccc(C(F)(F)F)c(C3=C(c4c[nH]c5ccccc45)C(=O)NC3=O)n2)CC1 ?
Response given: 7.83

---

Biological target: Human recombinant PKCη (Homo sapiens, UniProt P24723)
Sequence (P24723 whole entry): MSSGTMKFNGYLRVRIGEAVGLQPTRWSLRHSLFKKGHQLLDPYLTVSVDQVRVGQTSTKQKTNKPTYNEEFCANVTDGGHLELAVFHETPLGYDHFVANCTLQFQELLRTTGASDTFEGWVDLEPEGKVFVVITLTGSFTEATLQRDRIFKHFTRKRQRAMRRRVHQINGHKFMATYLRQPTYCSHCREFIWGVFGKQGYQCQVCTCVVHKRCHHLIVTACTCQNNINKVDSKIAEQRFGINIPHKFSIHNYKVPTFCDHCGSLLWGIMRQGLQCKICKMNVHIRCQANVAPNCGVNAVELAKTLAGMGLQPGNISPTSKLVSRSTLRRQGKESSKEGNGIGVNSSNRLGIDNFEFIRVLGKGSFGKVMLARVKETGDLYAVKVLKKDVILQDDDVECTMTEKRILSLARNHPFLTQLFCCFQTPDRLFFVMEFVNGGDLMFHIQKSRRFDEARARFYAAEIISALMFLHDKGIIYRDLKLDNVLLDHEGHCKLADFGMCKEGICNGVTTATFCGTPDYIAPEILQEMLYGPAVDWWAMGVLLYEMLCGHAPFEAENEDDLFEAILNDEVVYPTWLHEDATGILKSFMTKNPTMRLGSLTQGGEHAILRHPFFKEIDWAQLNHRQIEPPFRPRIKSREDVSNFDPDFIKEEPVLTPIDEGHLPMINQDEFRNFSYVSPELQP
Experiment: Protein Kinase Cη assay
Quick reference for IC50 among some molecules
Kindly provide the numeric value in nM only, without the unit symbol.

CN1CCN(c2ccc(C(F)(F)F)c(C3=C(c4c[nH]c5ccccc45)C(=O)NC3=O)n2)CC1 = 15.3

With those in mind, consider the next molecule.
Challenge: Could you tell me which IC50 is on file for Cc1cccc2c(C3=C(c4c(Cl)ccc5[nH]c(CN(C)C)cc45)C(=O)NC3=O)c[nH]c12 ?
Response given: 15
